Origin of measurements: patent US11292758B2

Assay name: in vivo
Test conditions: male, Sprague-Dawley, rat, po, 1 mg/kg, Average (n = 3) plasma concentrations
Outcome measure: concentration at 5 min

CCCCC[C@H](O)CC[C@@H]1[C@H]2Cc3cccc(OCC(=O)O)c3C[C@H]2C[C@H]1O [Treprostinil, treprostinil]: 4.52 ng/mL
